experiment: NOVARTIS: Cytotoxicity against human hepatocellular carcinoma cell line (Huh7); assay type: toxicity, cell-based, Huh-7; settings: Huh7 cells (hepatocellular carcinoma cell line)

molecule	CC50
COc1ccc(CNC(=O)C2CNCC2c2ccc(C(F)(F)F)cc2)cc1 (stereo unspecified)	24.1 µM
COc1cccc(Cn2c3cc(C)sc3c3cnn(C)c(=O)c32)c1	68.6 µM
CCN1CCN(Cc2c(O)ccc3c(=O)c(Oc4cccc(C)c4)c(C(F)(F)F)oc23)CC1	> 100 µM
O=[N+]([O-])c1cc(Cl)c(N2CCOCC2)cc1N1CCOCC1	> 100 µM
O=C(NCCCCNc1ccnc2cc(Cl)ccc12)c1ccccc1Cl	> 12 µM
O=C(NCc1ccccc1)c1cnc(NCCCn2ccnc2)nc1Nc1ccccc1	> 10 µM
COc1ccc(NC(=O)Cn2c(-c3ccc(OC)cc3)cn(-c3ccc(C)cc3)c2=O)cc1	> 10 µM
CC1=C(C(=O)OCCC(C)C)C(c2ccccc2)C(C(=O)OCCC(C)C)=C(C)N1	> 10 µM
FC(F)(F)c1ccc(Nc2nnnc3ccccc23)cc1	> 100 µM
CC[n+]1c(/C=C/c2ccc(F)cc2)ccc2ccccc21	> 10 µM
CC(C)C(=O)NC(Nc1ccc([N+](=O)[O-])cc1)C(Cl)(Cl)Cl (stereo unspecified)	68.3 µM
CN(CCCNc1ccnc2cc(Cl)ccc12)C(=O)C12CC3CC(CC(C3)C1)C2	14.1 µM
O=C(Cn1c(=O)oc2cc(S(=O)(=O)N3CCCC3)ccc21)Nc1cccnc1	> 10 µM
O=C(COC(c1ccccc1)c1c(Cl)cncc1Cl)N1CCNCC1 (stereo unspecified)	48.2 µM
CCCCC(CC)C(=O)N1CCN(C(CC)c2nc3ccccc3c(=O)n2C)CC1 (stereo unspecified)	> 100 µM
COc1ccc(-c2ccc(C(=O)N(C)Cc3cscn3)c(N3CCC(N4CCc5ccccc5C4)CC3)n2)cc1	> 10 µM
CC(CN1CCC(n2cc(C(=O)N3CCCC3)nn2)CC1)c1ccccc1 (stereo unspecified)	> 100 µM
CC(C)CN1C(=O)c2ccccc2C(C(=O)Nc2cc(F)ccc2F)C1c1cccs1 (stereo unspecified)	> 100 µM
CCC(=O)N1c2ccccc2NC2=C(C(=O)CC(C)(C)C2)C1c1ccc2c(c1)OCO2 (stereo unspecified)	> 100 µM
CC(C)N(CCNc1ncnc2c1[nH]c1ccc(Cl)cc12)C(C)C	15.2 µM
COc1cc(CNc2ccc(N3CCCCC3)cc2)cc(Cl)c1OCc1ccc(F)cc1	> 100 µM
CCc1ccc(O)c(-c2cc(C(=O)Nc3cccnc3)[nH]n2)c1	> 100 µM
CS(=O)(=O)N1CCCCC1C(=O)NCc1ccc(OC2CCN(CC(c3ccccc3)c3ccccc3)CC2)cc1 (stereo unspecified)	> 10 µM
Cn1c(=O)n(C)c2cc(C=NN=c3[nH]cc(-c4ccccc4)s3)ccc21	> 10 µM
CN(C)c1ccc(C(=C2C=CC(=[N+](C)C)C=C2)c2ccc(N(C)C)cc2)cc1 [GENTIAN VIOLET]	1.43 µM
O=C1c2cccc3c(C4=NN(c5ccccc5)C(c5ccc(Cl)cc5)C4)ccc(c23)C(=O)N1c1ccccc1 (stereo unspecified)	> 10 µM
O=C(NCc1ccccc1)c1cnc(NCCC(c2ccccc2)c2ccccc2)nc1NCC1CCCCC1	> 10 µM
CCOC(=O)C1=C(C)NC2=C(C(=O)C(C(=O)OCC)C(c3cccc(OC)c3)C2)C1c1cc(OC)c(OC)c(OC)c1 (stereo unspecified)	> 100 µM
COc1ccc(Nc2nc(Nc3ccc(OC)cc3)c3[nH]ccc3n2)cc1	> 10 µM
CCOC(=O)C1=C(CC)NC2=C(C(=O)CC(C)(C)C2)C1c1ccccc1F (stereo unspecified)	> 100 µM
O=C1C2C3c4ccccc4C(c4ccccc43)C2C(=O)N1CCO (stereo unspecified)	> 100 µM
O=S(=O)(NCCCCNc1ccnc2cc(Cl)ccc12)c1ccc2ccccc2c1	6.41 µM
CCSc1ncnc2scc(-c3ccccc3)c12	> 10 µM
CCN1CCN(c2cc(C)c3cc(NC(=O)/C=C/c4cc(OC)ccc4OC)ccc3n2)CC1	> 10 µM
Nc1ccc(C(=O)NN=Cc2cccc([N+](=O)[O-])c2)cc1	> 10 µM
Cc1ccc2c(nc3sc(=Cc4ccc(-c5ccccc5F)o4)c(=O)n32)c1C	> 10 µM
CCCCCCCC(=O)N1CCN(C(=O)C(NC(=O)Nc2ccc(Cl)cc2Cl)C(C)CC)CC1 (stereo unspecified)	> 10 µM
COC(F)(C(=O)Nc1c(C)n(C)n(-c2ccccc2)c1=O)C(F)(F)F (stereo unspecified)	> 9.06 µM
c1ccc2cc3c(NCCCN4CCOCC4)ccnc3cc2c1	0.598 µM
COc1ccc(C2CC(c3c(-c4ccccc4)c4cc(Cl)ccc4[nH]c3=O)=NO2)cc1 (stereo unspecified)	> 10 µM
C[n+]1cccc(/C=C2/c3ccccc3-c3ncccc32)c1	> 10 µM
